Attribution: ChEMBL document CHEMBL6153096

System: MOLT-4
Experiment: Induction of WEE1 degradation in human MOLT-4 cells at 1 uM incubated for 5 hrs by quantitative mass spectrometry based proteomic analysis
Type: cell-based
The source made the active and inactive calls. No cut-off for these calls is given here.
Please state which outcome applies, choosing from Y = active, N = inactive

{"molecule": "O=C1CCC(N2Cc3cc(NC(=O)c4cnc5ccccc5c4)ccc3C2=O)C(=O)N1 (centres undefined)", "class": "N"}
{"molecule": "O=C1CCC(N2Cc3cc(NC(=O)c4cc5ccccc5cn4)ccc3C2=O)C(=O)N1 (centres undefined)", "class": "N"}
{"molecule": "O=C1CCC(N2Cc3cc(-c4cc5ccccc5cn4)ccc3C2=O)C(=O)N1 (centres undefined)", "class": "Y"}

Q: Dear colleague, could you share the recorded outcome for O=C1CCC(N2Cc3cc(-c4cnc5ccccc5c4)ccc3C2=O)C(=O)N1 (centres undefined) when you have a moment?
Result: N
